Molecular target: HLA-A*2402 (human)
Assay: inhibition of 125I-labeled probe peptide binding to purified HLA-A*2402, gel filtration
pIC50: −log10 of the molar value.

| BINDER | pIC50 |
| --- | --- |
| CYGLGMEHF (HER2/neu analog peptide) [Her2/neu.342.F9] | 6.79 |
| RWGLLLAL (HER2/neu peptide, 8-mer; also called RWGLLLAL) [Her2/neu.8] | 6.32 |
| LYISAWPDSL (HER2/neu peptide) [Her2/neu.410] | 6.84 |
| AYSLTLQGF (HER2/neu analog peptide) [Her2/neu.440.F9] | 7.28 |
